Would you kindly list Enzyme Activity Endpoint Assay (purified): Fc for each of these proteins?
Subject Of Test: pooled human IgG (human IgG1,2,3 and 4)
Please format your answer as a value with the unit trailing.

Prompt line: Recorded Enzyme Activity Endpoint Assay (purified): Fc of PRT-302 (protein) MVTSVWTKGVTPPTDFIKGEDVFHAPYKAGQGWYDITKTFNGKDDLLCGAATAGNMLHWWFDQNKEYIEAYLKKHPEKQKIMFGDQELLDVRKAINTKGSQKNSELFNYFRDKAFPNLSARRLGVMPDLVLDMFINGYYLNVTKTQTTDVNRTYQEKDKRGGIFDAVFTRGDQSKLLTSRHDFKEKGLKEISDLIKQELTEGKALGLSHTYANVRLNHVINLWGADFDSDGNLKAIYVTDSDSNASIGMKKYGVGVNSAGKVAISAKEIKEDNIGAQVLGLFTLSTGQDIWNQTN , please.
Response line: 461 ng/µL

Prompt line: State the recorded Enzyme Activity Endpoint Assay (purified): Fc for this entry: PRT-336 (protein) MTITSVWTKGVTPPTPEDFRENNEDVLHAPYVANQGWYDITKTFDGKDNLLCGAATAGNMLHWWFDQNKEEIERYLKKHPEKQKIIFNNQELFDVKAAIDTKDSQTNSKLFDYFRDKAFPGLSARQLGVFPDLVLDMFINGYYLNLGKTQSTDVNRPYQDKDKRGGIFDAVFTRGVQTTLLTARHDLKNKGLNEISDLIKQELTEGKALALSHTYANVRINHVINLWGADFDAEGELIAIYVTDSDANPSIGMKKYFVGRNANGKVAISAKKIEGDNIGAQVLGLFTLSTGQDIWQKLS
Response line: 264 ng/µL

Prompt line: Entry under review: PRT-357 (protein) MSQTEDSESLQRLRDIEDFQAEKEKQNVVYTKWLDGVDVKDHDFRKIVDGNSAYYATPLLNGRGWYDINKDFNRDSDKCAAAVAANMFHYWLDRNRDNVDRFLRQNPEKHGIIELPDGQLKLSDFLNTYESDDGYRDKSKLFDFISNNFNGPVWTDKLLDNYINGYAYNYKYGRTIEDPTKNTSKINFFKEVFNEKILTNNHSIRNQNEFSVLLSEALYTGKAIGLSYGPAGLRHSLGHIISVWGADLDADGNVVAIYVTDSDDKKLTIGDERVGLKRYKISTDDEGRLRLTAYEETHNTGGQVRGLWTLDTGKQAWADYFDKTEQTGTDQAEQ . Reported Enzyme Activity Endpoint Assay (purified): Fc?
Response line: 389 ng/µL

Prompt line: Would you kindly share the measured Enzyme Activity Endpoint Assay (purified): Fc for PRT-360 (protein) MSQTEDSESLQRLRDIEDFQAEKKDQNVVYTKWLDGVDVKDHDFRKIVDGNSAYYATPLLNGRGWYDINKDFNRDSDKCAAAVAANMFHYWLDRNRDNVDRFLRQNPEKHGIIELPDGQLKLSDFLNTYESDDGYRDKSKLFDFISENFNGPVWTDKLLDNYINGYAYNYKYGRTIEDPTKNTSKINFFKEVFNEKILTNNHSIRNQNEFSVLLIEALYTGKAIGLSYGPAGLRHSLGHIISVWGADLDADGNVVAIYVTDSDDKKLTIGDERVGLKRYKISTDDEGRLRLTAYEETHNTGGQVRGLWTLDTGKQAWADYFDKTEQTGTDQAEQ ?
Response line: 241 ng/µL
